Just for reference, the OligoGym collection is where these values come from.

SYSTEM_TESTED: RHOQ
EXPERIMENT: reporter assay of Huesken 2005
CONDITION_DETAILS: siRNA
Oligonucleotides are written 5' to 3', each unit as a sugar letter and its base; * is a phosphorothioate linkage, no mark a phosphodiester; rarer units and linkages stand in square brackets, end groups in braces. Plain capitals give the bases only. d = 2'-deoxy (DNA); r = 2'-OH (RNA)
I'd appreciate it if you could supply normalised inhibition (eCFP-eYFP dual reporter) values for the items below.
One number for each entry, in %.

Known results for substances:
SUBSTANCE: sense rArArArUrCrArArUrUrArArCrArUrArUrUrArGdTdT / antisense rCrUrArArUrArUrGrUrUrArArUrUrGrArUrUrUdAdT
SYSTEM_TESTED: RHOQ
OBSERVED_RESULT: 46.2
//
SUBSTANCE: sense rUrCrArCrArUrGrArCrUrUrGrArGrCrUrUrArUdTdT / antisense rArUrArArGrCrUrCrArArGrUrCrArUrGrUrGrAdAdT
SYSTEM_TESTED: RHOQ
OBSERVED_RESULT: 87

Okay, now this substance:
Q: Record lookup: for RHOQ, what normalised inhibition (eCFP-eYFP dual reporter) belongs to sense rUrCrUrUrArUrUrUrArArUrUrUrUrGrGrUrCrUdTdT / antisense rArGrArCrCrArArArArUrUrArArArUrArArGrAdAdA ?
Result: 44.2

* * *

SYSTEM_TESTED: DENND5A
EXPERIMENT: reporter assay of Huesken 2005
CONDITION_DETAILS: siRNA
Oligonucleotides are written 5' to 3', each unit as a sugar letter and its base; * is a phosphorothioate linkage, no mark a phosphodiester; rarer units and linkages stand in square brackets, end groups in braces. Plain capitals give the bases only. d = 2'-deoxy (DNA); r = 2'-OH (RNA)
Classes are defined on normalised inhibition (eCFP-eYFP dual reporter) with ranges L = under 50%, M = from 50% up to 60%, H = 60% and over

Some entries whose results are on file:
SUBSTANCE: sense rUrUrUrGrGrGrUrUrUrGrCrCrCrUrCrArCrArUdTdT / antisense rArUrGrUrGrArGrGrGrCrArArArCrCrCrArArAdTdG
SYSTEM_TESTED: DENND5A
ASSIGNED_LABEL: H

SUBSTANCE: sense rArGrGrCrUrGrArUrCrCrCrArGrGrGrArGrCrCdTdT / antisense rGrGrCrUrCrCrCrUrGrGrGrArUrCrArGrCrCrUdGdG
SYSTEM_TESTED: DENND5A
ASSIGNED_LABEL: M

SUBSTANCE: sense rUrGrCrArArArArCrUrUrUrGrArUrArArArGrCdTdT / antisense rGrCrUrUrUrArUrCrArArArGrUrUrUrUrGrCrAdTdT
SYSTEM_TESTED: DENND5A
ASSIGNED_LABEL: L

SUBSTANCE: sense rUrGrCrCrGrCrUrCrCrCrArCrCrUrCrCrUrGrGdTdT / antisense rCrCrArGrGrArGrGrUrGrGrGrArGrCrGrGrCrAdCdC
SYSTEM_TESTED: DENND5A
ASSIGNED_LABEL: L

Q: Category of sense rGrCrUrGrArArGrArGrGrCrUrGrCrGrGrGrCrCdTdT / antisense rGrGrCrCrCrGrCrArGrCrCrUrCrUrUrCrArGrCdTdT :
Result: L

Q: For this substance, which bin applies? sense rCrUrCrCrUrGrUrGrArCrCrArArArCrUrGrCrAdTdT / antisense rUrGrCrArGrUrUrUrGrGrUrCrArCrArGrGrArGdTdG
Result: H
